experiment: probe aNog binding to arrayed compounds – biochemical, biotinylated probe, 635/667 nm fluorescence, primary screen (AID 1115); settings: small-molecule microarray, higher = more signal;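 further: probe is biotinylated aNog protein used at 0.15 µg/mL for 1 h at 4 C; z-score combines 667 nm fluorescence of each spot with its signal to noise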
Quick rule for you: composite z-score at -0.2 or higher means Fulfilled, lower means Not fulfilled.

{"columns": ["compound", "class_assignment"],
 "data": [
  ["C=CCC(OC(C)=O)[C@@H]1[C@@H](N(Cc2cccc3ccccc23)C(=O)Cc2ccc(OC)cc2)c2cc(OCCCO)ccc2N1C(=O)c1ccc(-c2ccccc2)cc1 (stereo partly drawn)", "Fulfilled"],
  ["C=CCOC(=O)[C@@H]1[C@H]2C(=O)O[C@H](c3ccccc3)[C@H](c3ccccc3)N2[C@H](c2ccc(OCCOC(=O)[C@@H]3C[C@@H]4C(=O)N[C@@H](CCCC[N+](C)(C)C)C(=O)N4[C@@H]3c3ccc(O)cc3)cc2)[C@@]12C(=O)Nc1ccc(I)cc12", "Fulfilled"],
  ["CCC#CCN(Cc1ccccc1Br)[C@H](/C=C/C1CC1)[C@@H](O)Cc1ccccc1", "Not fulfilled"],
  ["[N-]=[N+]=Nc1ccccc1C[C@@]1(C(N)=O)N=C(c2ccc(OCCCO)cc2)O[C@@H]1c1ccccc1N=[N+]=[N-]", "Not fulfilled"],
  ["CCCCCCCCCC(O)C1C=CC2C(=O)N(c3ccccc3)C(=O)C2N1Nc1cc(OC)c(OC)c(OC)c1 (stereo not drawn)", "Fulfilled"],
  ["COC(=O)[C@@]1(Cc2ccc(OC)cc2)[C@H]2c3cc(C(=O)N4CCCC4)n(CCO)c3C[C@H]2CN1C(=O)c1ccccc1", "Fulfilled"],
  ["O=C(Cc1ccccc1)[C@H]1C2C=CCCC(c3ccccc3)=C2CN1Cc1ccccc1 (stereo partly drawn)", "Fulfilled"],
  ["CC(CO)N1C(=O)[C@@H]2[C@H]3C(=O)OCC=C[C@H]3OC23C=CCN(Cn2nnc4ccccc42)C(=O)[C@@H]13 (stereo partly drawn)", "Fulfilled"],
  ["COCCOC(=O)N1C(=O)[C@@]2(c3cc(C#CC4(O)CCCCCC4)ccc31)[C@H](C(=O)Nc1nc3ccccc3s1)[C@H]1C(=O)O[C@H](c3ccccc3)[C@H](c3ccccc3)N1[C@@H]2c1ccc(O)cc1", "Fulfilled"],
  ["Cc1ccc(S[C@]2(C(=O)NCCN3CCOCC3)CC(=O)N(Cc3ccccc3Cl)[C@@H]2c2ccc(CO)cc2I)cc1", "Fulfilled"],
  ["COc1ccc(C#Cc2ccc3c(c2)[C@]2(C(=O)N3)[C@H](c3ccc(OCCO)cc3)N3[C@H](c4ccccc4)[C@H](c4ccccc4)OC(=O)[C@H]3[C@@H]2C(=O)NC[C@H](O)c2ccccc2)cc1", "Fulfilled"],
  ["O=C1O[C@H](c2ccccc2)[C@H](c2ccccc2)N2[C@H]1[C@@H](C(=O)O)[C@]1(C(=O)Nc3ccc(C#CCCO)cc31)[C@H]2c1ccccc1OCCO", "Not fulfilled"]
]}

----------
test system: Fibrinogen (Alexa647-labelled); experiment: Alexa647-fibrinogen binding to printed small molecules – biochemical, small-molecule microarray, 635/667 nm fluorescence, artefact control for SMM control-protein annotation, profiling panel (AID 1131); details: fibrinogen-A647 binding fluorescence, higher = more signal;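 further: z-score merges 667 nm fluorescence with per-spot signal-to-noise over triplicate slides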
Quick rule for you: composite z-score at 0.4 or higher means true, lower means false.

{"columns": ["molecule", "class_assignment"],
 "data": [
  ["C=CC[C@H](OC(=O)Nc1ccc(SC)cc1)c1ccc(O)c2ccccc12", "true"],
  ["COc1ccc([Si](C)(C)[C@H]2[C@H](CC(=O)N3Cc4ccccc4C[C@H]3CO)O[C@@]3(C(=O)N(Cc4ccc(N5CCOC5=O)cc4)c4ccccc43)[C@@H]2C)cc1", "false"],
  ["COc1cc2c(cc1O)C(c1ccc(CN3CCCC3)cc1)N(Cc1cc3c(cc1Br)OCO3)CC2 (stereo unspecified)", "true"],
  ["C=CCOC(=O)[C@@]1(Cc2ccccc2)C[C@H]2CO[C@H](c3ccc(OC)cc3)N2C1=O", "true"],
  ["COc1ccc(CCNC(=O)[C@@]2(Sc3ccc(C)cc3)CC(=O)N(Cc3ccccc3C(F)(F)F)[C@@H]2c2ccc(CO)cc2I)cc1", "true"],
  ["COCCCNC(=O)[C@@H]1c2ccccc2C(=O)N(C(C)C)[C@H]1c1ccc(CO)cc1", "false"],
  ["CC(=O)NCCCC[C@@H]1NC(=O)[C@@H]2C[C@H](C(=O)NCCCCCN)[C@H](c3ccc(O)cc3)N2C1=O", "true"],
  ["CC(c1ccccc1)C(O)C1C=CC2C(=O)N(C)C(=O)C2N1Nc1ccccc1 (stereo unspecified)", "true"],
  ["[N-]=[N+]=NCc1ccccc1C[C@@]1(C(N)=O)N=C(c2ccc(OCCCO)cc2)O[C@@H]1c1ccccc1", "true"],
  ["CC(C)[Si](C#C[Si](C(C)C)(C(C)C)C(C)C)(O[C@H](c1ccccc1)c1cn(Cc2ccccc2)nn1)C(C)C", "true"],
  ["COC(=O)[C@]1(CCS(=O)(=O)c2ccccc2)N=C(c2ccc(OCCCO)cc2)O[C@@H]1c1ccccc1N=[N+]=[N-]", "true"],
  ["COc1ccc([Si](C)(C)[C@H]2[C@H](CC(=O)N(CCO)Cc3ccccc3)O[C@@]3(C(=O)N(C)c4c(Br)cc(C)cc43)[C@@H]2C)cc1", "false"],
  ["CCCNC(=O)[C@@H]1c2ccccc2C(=O)N(Cc2ccc(OC(F)(F)F)cc2)[C@H]1c1ccc(CO)cc1", "false"],
  ["O=C(NCc1ccc(F)cc1)[C@H]1C[C@H]2C(=O)NCC(=O)N2[C@H]1c1ccc(O)cc1", "true"],
  ["CCOC(=O)C1=C[C@@H](C(C)(C)C)N(S(=O)(=O)c2ccc(C)cc2)[C@H]1c1cccc2ccccc12", "true"],
  ["CCCNC(=O)[C@@]1(C)c2ccccc2C(=O)N(c2ccc(C)cn2)[C@H]1c1ccc(CO)cc1", "false"]
]}

----------
system: Wnt5a (protein binding on small-molecule microarray); test: small molecules binding Wnt5a protein – biophysical, small-molecule microarray, 635/667 nm fluorescence, primary screen (AID 1142); settings: 635 nm fluorescence, higher = more signal;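 further: fluorescence read at 667 nm with signal to noise per printed feature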

{"columns": ["compound", "composite z-score"],
 "data": [
  ["COC(=O)c1c(CC[C@@H](CO)NC(=O)N2CCC[C@H]2Cn2cc(C3(O)CCCCC3)nn2)oc(C(C)=O)c1C(=O)OC", -0.0505],
  ["CCCC1(C(=O)OC)C=C2C(=C(C)C(=O)C2C)CN1 (stereo not given)", 0.0439],
  ["CCOC(=O)C1=CC[C@@H](c2ccccc2)N(S(=O)(=O)c2ccc(C)cc2)[C@H]1c1ccccc1", 0.144],
  ["CN(C)C(=O)[C@@]1(Cc2ccccc2CN=[N+]=[N-])N=C(c2ccc(OCCCO)cc2)O[C@H]1c1ccccc1N=[N+]=[N-]", 0.0168],
  ["C=C[C@@H](OC)[C@H](OC(=O)Nc1ccc(OC)cc1)c1ccc(O)c(F)c1", -0.182]
]}

----------
assay: JC-1 mitochondrial signal, unstimulated myeloma cells – cell-based, JC-1 fluorescence, RPMI8226, 24 h, 100 nL compound, profiling panel (AID 1169); details: JC-1 mitochondrial potential fluorescence, higher = more signal; further: test concentration not given here
# key: entry, value: z-score

{"columns": ["molecule", "z-score"],
 "data": [
  ["CC(C)[Si](C#CCCCC#N)(O[C@H](c1ccccc1)c1cn(Cc2ccccc2)nn1)C(C)C", 0.993],
  ["CCC#CCN(Cc1ccccc1Br)[C@H](/C=C/C1CC1)[C@@H](O)Cc1ccccc1", -0.774],
  ["CN(C)C(=O)[C@@]1(Cc2ccccc2)N=C(c2ccc(OCCCO)cc2)O[C@H]1c1ccccc1", -0.0484],
  ["CCN(CC)c1ccc(N2CC=CC34O[C@@H]5/C=C\\CCCOC(=O)C5[C@H]3C(=O)N(C(C)CO)[C@@H]4C2=O)cc1 (stereo not given in full)", -0.441],
  ["O=C(NCc1ccc(F)cc1)[C@H]1C[C@H]2C(=O)NCC(=O)N2[C@H]1c1ccc(O)cc1", 0.683]
]}

----------
test: inhibition of PAO1 biofilm formation – strain PAO1, LB-PBS medium, absorbance 600 nm, primary screen (AID 1176); further: test concentration not given here; conditions: P. aeruginosa PAO1 growth/biofilm, A600, 12 h; higher = more signal
The source made the active and inactive calls. The rule behind the calls is not given here.

{"columns": ["structure_notation", "z-score"],
 "data": [
  ["CCOC(=O)C[C@H]1[C@H](OC(=O)c2ccc(C(=O)c3ccccc3)cc2)[C@@H](NC(=O)c2ccc3ccccc3n2)c2cc(OCCCO)ccc2N1C(=O)Cc1ccc(OC)cc1", "-0.75 (inactive)"],
  ["COCCCNC(=O)[C@@H]1c2ccccc2C(=O)N(C(C)C)[C@H]1c1ccc(CO)cc1", "0.168 (inactive)"],
  ["CCOC(=O)[C@@H]1CCCCN1C(=O)C(=O)OC", "-0.255 (inactive)"],
  ["COCCOC(=O)N1C(=O)[C@@]2(c3cc(C#CC4(O)CCCCCC4)ccc31)[C@H](c1ccc(O)cc1)N1[C@H](c3ccccc3)[C@H](c3ccccc3)OC(=O)[C@H]1[C@@H]2C(=O)N1CCN(c2ncccn2)CC1", "0.654 (inactive)"]
]}
